# Experimental system: MHC DR2 (DRB1*1501/DRA*0101) (Homo sapiens, UniProt P01903+P01911)
# Construct: endogenous in cells
# Test description: HLA II Binding Assay (competition with biotinylated reference peptide)
# Cond: purified HLA-DR, biotinylated reference compound for DRB1*1501, 37° C. 24 h to 72 h; read-out: Inhibition of peptide binding IC50 (against MHC DR2 (DRB1*1501/DRA*0101))
Square brackets hold non-standard residues; d marks the D form. Peptide text beside a SMILES is read from it. Gly(cPent) = N[C@H](C(=O)O)C1CCCC1; Igl = N[C@H](C(=O)O)C1Cc2ccccc2C1; Tic = O=C(O)[C@@H]1Cc2ccccc2CN1
Endpoint name: IC50

Query :: Supply reported IC50 belonging to this compound: CC(=O)N[C@H](C(=O)N[C@@H](CCCNC(=N)N)C(=O)N1Cc2ccccc2C[C@H]1C(=O)NC(Cc1cccc2[nH]ccc12)C(N)=O)C1CCCCC1 (stereo partly drawn)
Result :: 10 to 100 nM

Query :: Supply reported IC50 belonging to this compound: CC(=O)N[C@H](C(=O)N[C@H](C(=O)N[C@@H](CCCNC(=N)N)C(=O)N1Cc2ccccc2C[C@H]1C(=O)N[C@@H](Cc1ccccc1)C(N)=O)C1Cc2ccccc2C1)C(C)C [AcV(Indgly)R(Tic)F] (Ac-V[Igl]R[Tic]F-NH2)
Result :: 10 to 100 nM

Query :: Supply reported IC50 belonging to this compound: CC(=O)N[C@H](C(=O)N[C@H](C(=O)N[C@@H](CCCNC(=N)N)C(=O)N1Cc2ccccc2C[C@H]1C(=O)N[C@@H](Cc1ccccc1)C(N)=O)C1CCCC1)C(C)C [AcV(Cpg)R(Tic)F] (Ac-V[Gly(cPent)]R[Tic]F-NH2)
Result :: 1 to 10 nM

Each recorded value in this set is attributed to patent US20110217324A1.
